# measured_on: ATP-dependent translocase ABCB1 (Mus musculus, UniProt P21447)
# Sequence (P21447 whole entry): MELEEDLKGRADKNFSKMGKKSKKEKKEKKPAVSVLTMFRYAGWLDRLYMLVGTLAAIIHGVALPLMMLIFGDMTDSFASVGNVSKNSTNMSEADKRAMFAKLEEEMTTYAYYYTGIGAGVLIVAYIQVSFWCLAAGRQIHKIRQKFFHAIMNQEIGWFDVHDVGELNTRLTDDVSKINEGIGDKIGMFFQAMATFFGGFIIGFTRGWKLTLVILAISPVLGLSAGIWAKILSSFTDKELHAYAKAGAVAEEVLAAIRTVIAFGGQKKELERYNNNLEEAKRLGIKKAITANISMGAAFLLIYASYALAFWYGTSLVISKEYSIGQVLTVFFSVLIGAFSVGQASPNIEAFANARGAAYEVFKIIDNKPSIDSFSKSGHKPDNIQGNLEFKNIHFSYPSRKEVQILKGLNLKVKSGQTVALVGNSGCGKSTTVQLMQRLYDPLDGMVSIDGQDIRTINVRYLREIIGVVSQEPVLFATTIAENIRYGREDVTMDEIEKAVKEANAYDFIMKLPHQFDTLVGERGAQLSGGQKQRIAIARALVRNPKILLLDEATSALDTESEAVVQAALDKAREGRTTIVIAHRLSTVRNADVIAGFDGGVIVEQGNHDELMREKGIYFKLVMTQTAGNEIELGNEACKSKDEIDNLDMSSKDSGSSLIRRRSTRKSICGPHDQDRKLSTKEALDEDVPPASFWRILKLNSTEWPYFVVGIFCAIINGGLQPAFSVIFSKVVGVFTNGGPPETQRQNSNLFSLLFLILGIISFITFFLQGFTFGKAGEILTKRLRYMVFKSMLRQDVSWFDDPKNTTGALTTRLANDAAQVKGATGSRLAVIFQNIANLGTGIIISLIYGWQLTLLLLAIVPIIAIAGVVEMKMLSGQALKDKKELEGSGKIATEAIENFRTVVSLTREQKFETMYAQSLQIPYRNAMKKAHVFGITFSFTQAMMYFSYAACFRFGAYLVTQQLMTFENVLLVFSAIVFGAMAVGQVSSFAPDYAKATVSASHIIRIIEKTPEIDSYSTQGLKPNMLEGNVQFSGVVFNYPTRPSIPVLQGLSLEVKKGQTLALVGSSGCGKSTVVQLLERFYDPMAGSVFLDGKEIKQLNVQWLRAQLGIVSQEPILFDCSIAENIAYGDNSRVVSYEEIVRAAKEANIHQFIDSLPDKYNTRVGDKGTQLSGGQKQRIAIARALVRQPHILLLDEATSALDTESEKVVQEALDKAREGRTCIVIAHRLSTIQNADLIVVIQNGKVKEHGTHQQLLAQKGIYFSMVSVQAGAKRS
# experiment_summary: TP_TRANSPORTER: inhibition of Calcein-AM efflux in Mdr1a-expressing LLC-PK1 cells
# Format: functional, cell-based
pIC50: −log10 of the molar value.
Give pIC50 for every item shown.

Study these solved cases before continuing.
- line_notation: "Cc1ncc2n1-c1ccc(Cl)cc1C(c1ccccc1F)=NC2"
  reported_metric: "pIC50"
  result: "< 4.30"
- line_notation: "COc1ccc(CCN2CCC(Nc3nc4ccccc4n3Cc3ccc(F)cc3)CC2)cc1"
  reported_metric: "pIC50"
  result: 5.89

Turning now to a further record.
Task item: Consider the molecule C[C@H]1O[C@@H](O[C@H]2[C@@H](O)C[C@H](O[C@H]3[C@@H](O)C[C@H](O[C@H]4CC[C@@]5(C)[C@H](CC[C@@H]6[C@@H]5C[C@@H](O)[C@]5(C)[C@@H](C7=CC(=O)OC7)CC[C@]65O)C4)O[C@@H]3C)O[C@@H]2C)C[C@H](O)[C@@H]1O and give its recorded pIC50.
Reply: < 4.30

###

# measured_on: ATP-dependent translocase ABCB1 (Mus musculus)
# experiment_summary: TP_TRANSPORTER: inhibition of Calcein-AM efflux in Mdr1a-expressing LLC-PK1 cells
# Assay type: functional, cell-based
Give pIC50 for every item shown.
Answers are plain numbers, as −log10 of the molar value.

Provide each entry's pIC50 from the list below.
1. COC(=O)C1=C(C)NC(C)=C(C(=O)OCCN(C)Cc2ccccc2)C1c1cccc([N+](=O)[O-])c1 (stereo not drawn)
2. Clc1ccccc1C(c1ccccc1)(c1ccccc1)n1ccnc1

Reply:
[5.60, 5.32]

###

# measured_on: ATP-dependent translocase ABCB1 (Mus musculus)
# experiment_summary: Inhibition of P-glycoprotein, mouse L-mdr1b expressed in LLC-PK1 epithelial cells using calcein-AM polarisation assay
# Assay type: functional, cell-based
Give IC50 for every item shown.
One number for each entry, in µM.

Study these solved cases before continuing.
- molecule: "COC(=O)C1=C(C)NC(C)=C(C(=O)OCCN(C)Cc2ccccc2)C1c1cccc([N+](=O)[O-])c1 (centres undefined) [NICARDIPINE]"
  IC50 [µM]: 8
- molecule: "C=C[C@H]1C[N@@]2CC[C@H]1C[C@@H]2[C@@H](O)c1ccnc2ccc(OC)cc12 [QUINIDINE]"
  IC50 [µM]: 10
- molecule: "COc1ccc(CCN2CCC(Nc3nc4ccccc4n3Cc3ccc(F)cc3)CC2)cc1 [ASTEMIZOLE]"
  IC50 [µM]: 1.7

Turning now to a further record.
Task item: Consider the molecule Clc1ccccc1C(c1ccccc1)(c1ccccc1)n1ccnc1 [CLOTRIMAZOLE] and give its recorded IC50.
Reply: 3.5

###

# measured_on: ATP-dependent translocase ABCB1 (Mus musculus, UniProt P21447)
# experiment_summary: Inhibition of P-glycoprotein, mouse L-mdr1a expressed in LLC-PK1 epithelial cells using calcein-AM polarisation assay
# Type: functional, cell-based
reported_metric: pIC50
Give bare numbers, as −log10 of the molar value.

Study these solved cases before continuing.
- molecule: "C=C[C@H]1C[N@@]2CC[C@H]1C[C@@H]2[C@@H](O)c1ccnc2ccc(OC)cc12"
  measured_on: "ATP-dependent translocase ABCB1 (Mus musculus, UniProt P21447)"
  reported_metric: "pIC50"
  measured_number: 4.89
- molecule: "CCC(C)n1ncn(-c2ccc(N3CCN(c4ccc(OC[C@H]5CO[C@](Cn6cncn6)(c6ccc(Cl)cc6Cl)O5)cc4)CC3)cc2)c1=O (stereo partly specified)"
  measured_on: "ATP-dependent translocase ABCB1 (Mus musculus, UniProt P21447)"
  reported_metric: "pIC50"
  measured_number: 6.70

Turning now to a further record.
Task item: Consider the molecule COCC(=O)O[C@]1(CCN(C)CCCc2nc3ccccc3[nH]2)CCc2cc(F)ccc2[C@@H]1C(C)C and give its recorded pIC50.
Reply: 5.13
